- assayed_target: Neurotensin receptor type 1 (Homo sapiens, UniProt P30989)
- Sequence (P30989 whole entry, the tested form may be a part): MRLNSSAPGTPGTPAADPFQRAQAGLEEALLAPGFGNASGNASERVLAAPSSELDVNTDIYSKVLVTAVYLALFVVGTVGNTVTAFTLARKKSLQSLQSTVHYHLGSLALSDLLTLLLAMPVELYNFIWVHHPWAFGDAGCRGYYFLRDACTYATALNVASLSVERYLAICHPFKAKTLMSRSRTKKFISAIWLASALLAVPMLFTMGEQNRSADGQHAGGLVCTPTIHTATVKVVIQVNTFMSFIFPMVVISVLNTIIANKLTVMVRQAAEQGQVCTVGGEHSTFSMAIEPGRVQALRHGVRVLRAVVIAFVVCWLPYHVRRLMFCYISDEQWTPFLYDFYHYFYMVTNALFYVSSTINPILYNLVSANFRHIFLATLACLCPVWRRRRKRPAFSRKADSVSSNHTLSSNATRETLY
- assay_overview: Agonist activity at GFP10/beta-arrestin1-Rluc2 fused human NTS1 expressed in CHO-K1 cell membranes assessed as beta-arrestin1 recruitment after 20 mins by BRET assay
- Assay type: functional, cell-based
- experimental_conditions: cho-k1
observable: EC50 (nM)
Enter your answer as a number in nM; do not include the unit.

// EC50 value for CC[C@H](C)[C@H](NC(=O)[C@@H]1Cc2ccc(O)c(c2)CC=CCCCCCCC(=O)N[C@@H](CCCCN)C(=O)N2CCC[C@H]2C(=O)N1)C(=O)N[C@@H](CC(C)C)C(=O)O : 1500

---

- assayed_target: Neurotensin receptor type 1 (Homo sapiens)
- assay_overview: Agonist activity at GFP10/beta-arrestin2-Rluc2 fused human NTS1 expressed in CHO-K1 cell membranes assessed as beta-arrestin2 recruitment after 20 mins by BRET assay
- Type: functional, cell-based
observable: EC50 (µM)
Enter your answer as a number in µM; do not include the unit.

// EC50 value for CC[C@H](C)[C@H](NC(=O)[C@@H]1Cc2ccc(O)c(c2)CC=CCCCCCC[C@](C)(N)C(=O)N[C@@H](CCCCN)C(=O)N2CCC[C@H]2C(=O)N1)C(=O)N[C@@H](CC(C)C)C(=O)O : 0.028

// EC50 value for C=CCNCCCC[C@H](N)C(=O)N[C@@H](CCCCN)C(=O)N1CCC[C@H]1C(=O)N[C@@H](Cc1ccc(O)c(CC=C)c1)C(=O)N[C@H](C(=O)N[C@@H](CC(C)C)C(=O)O)[C@@H](C)CC : 0.009

---

- assayed_target: Neurotensin receptor type 1 (Homo sapiens)
- assay_overview: Displacement of [125I]Tyr3-neurotensin from human NTS1 receptor (end Leu 194 residues) expressed in CHO cells
- Type: cell-based
observable: Ki (nM)
Enter your answer as a number in nM; do not include the unit.

// Ki value for CC[C@H](C)[C@H](NC(=O)[C@@H]1Cc2ccc(cc2)OCCCCCC(=O)N[C@@H](CCCNC(=N)N)C(=O)N2CCC[C@H]2C(=O)N1)C(=O)N[C@@H](CC(C)C)C(=O)O : 450

---

- assayed_target: Neurotensin receptor type 1 (Homo sapiens, UniProt P30989)
- assay_overview: Agonist activity at Galphaq-Rluc2/Gbeta1/GFP10-Ggamma1 fused human NTS1 expressed in CHO-K1 cell membranes assessed as Galphaq activation after 5 mins by BRET assay
- Type: functional, cell-based
observable: EC50 (nM)
Enter your answer as a number in nM; do not include the unit.

// EC50 value for C=CCNCCCC[C@H](N)C(=O)N[C@@H](CCCCN)C(=O)N1CCC[C@H]1C(=O)N[C@@H](Cc1ccc(O)c(CC=C)c1)C(=O)N[C@H](C(=O)N[C@@H](CC(C)C)C(=O)O)[C@@H](C)CC : 7

// EC50 value for CC[C@H](C)[C@H](NC(=O)[C@@H]1Cc2ccc(O)c(c2)CC=CCNCCC[C@H](N)C(=O)N[C@@H](CCCCN)C(=O)N2CCC[C@H]2C(=O)N1)C(=O)N[C@@H](CC(C)C)C(=O)O : 3
